For each of the sequences below, state its shrunken log2 fold change.
- System: Escherichia coli TOP10;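 further: peptides expressed intracellularly from a pBAD plasmid library in pooled LB shake-flask culture, induced with 0.3% L-arabinose, DNA abundance read by NGS, three biological replicates, DESeq2 with apeglm shrinkage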
- METHOD: shrunken log2 fold change of peptide-encoding DNA abundance (4.5 h post-induction vs induction); higher = less antimicrobial activity (less host growth inhibition)
- CONDITION NOTES: time post-induction: 4.5 h; library: site-saturation at positions 5, 18, 19, 20
Note: the reply should be a number with no unit written.

Problem: Would you mind telling me what shrunken log2 fold change value was observed for `RRIRVRPPRLPRPRPRPGVPPRP` ?
Solution: 0.0752

Problem: Name the recorded shrunken log2 fold change for `RRIRVRPPRLPRPRPRPSAPPRP` .
Solution: 0.358

Problem: Param item = `RRIRSRPPRLPRPRPRPEMEPRP` ; retrieve measured shrunken log2 fold change.
Solution: 0.00902

Problem: Item `RRIRPRPPRLPRPRPRPAWEPRP` has what recorded shrunken log2 fold change?
Solution: 0.216

Problem: Endpoint output: shrunken log2 fold change of `RRIRDRPPRLPRPRPRPSWCPRP` . Value?
Solution: -0.0805

Problem: # lookup: shrunken log2 fold change of `RRIRHRPPRLPRPRPRPKDCPRP`
Solution: 0.00375

Problem: Param item = `RRIRSRPPRLPRPRPRPHVQPRP` ; retrieve measured shrunken log2 fold change.
Solution: 0.132

Problem: What value of shrunken log2 fold change has been reported for the following sequence? `RRIRQRPPRLPRPRPRPIDMPRP`
Solution: 0.00643

Problem: Reported shrunken log2 fold change, sequence `RRIRVRPPRLPRPRPRPRSDPRP` : ____
Solution: -0.258

Problem: For the sequence shown here, `RRIRYRPPRLPRPRPRPKLRPRP` , give the reported shrunken log2 fold change.
Solution: -0.111

Problem: Recorded shrunken log2 fold change of `RRIRTRPPRLPRPRPRPSVYPRP` , please.
Solution: -0.389

Problem: I have this sequence here, `RRIRLRPPRLPRPRPRPNTIPRP` , and I need its recorded shrunken log2 fold change.
Solution: -0.796

Problem: For the sequence `RRIRGRPPRLPRPRPRPDKQPRP` , what shrunken log2 fold change is on record?
Solution: 0.0252

Problem: Requested read-out: shrunken log2 fold change. Entry: `RRIRDRPPRLPRPRPRPKMFPRP`
Solution: 0.00408

Problem: Could you share which shrunken log2 fold change value was measured for `RRIRFRPPRLPRPRPRPHQRPRP` ?
Solution: -0.183

Problem: Query: shrunken log2 fold change; subject: `RRIRKRPPRLPRPRPRPNNKPRP`
Solution: -0.162

Problem: Need shrunken log2 fold change of `RRIRVRPPRLPRPRPRPIDTPRP` , thanks.
Solution: -0.48

Problem: So what's the measured shrunken log2 fold change for this one? `RRIRDRPPRLPRPRPRPFYIPRP`
Solution: -0.796

Problem: Please report the recorded shrunken log2 fold change for `RRIRRRPPRLPRPRPRPWHCPRP` .
Solution: -0.18

Problem: # query: shrunken log2 fold change of entry `RRIRIRPPRLPRPRPRPGMMPRP`
Solution: -0.453

Problem: # get_value(readout='shrunken log2 fold change', item= `RRIRVRPPRLPRPRPRPNIKPRP` )
Solution: -0.497

Problem: Recorded shrunken log2 fold change of `RRIRCRPPRLPRPRPRPIGDPRP` , please.
Solution: -0.0014

Problem: I have this sequence here, `RRIRCRPPRLPRPRPRPWSSPRP` , and I need its recorded shrunken log2 fold change.
Solution: 0.615

Problem: Name the reported shrunken log2 fold change value associated with the sequence `RRIRWRPPRLPRPRPRPMVWPRP`
Solution: 0.025

Problem: Could you tell me which shrunken log2 fold change is on file for `RRIRPRPPRLPRPRPRPTEFPRP` ?
Solution: -0.268

Problem: I'd like to know its shrunken log2 fold change. The sequence in question is `RRIRCRPPRLPRPRPRPAWKPRP`
Solution: 0.0545

Problem: Please report the recorded shrunken log2 fold change for `RRIRIRPPRLPRPRPRPIAWPRP` .
Solution: 0.0253

Problem: For the sequence `RRIRDRPPRLPRPRPRPADQPRP` , what shrunken log2 fold change is on record?
Solution: 0.553

Problem: Record request: shrunken log2 fold change value, item `RRIRMRPPRLPRPRPRPNCWPRP`
Solution: 0.755

Problem: Field request: shrunken log2 fold change | item: `RRIRDRPPRLPRPRPRPQKQPRP`
Solution: 0.086

Problem: Record request: shrunken log2 fold change value, item `RRIRCRPPRLPRPRPRPGHYPRP`
Solution: -0.0646

Problem: Report shrunken log2 fold change for `RRIRRRPPRLPRPRPRPLENPRP` please.
Solution: 0.194

Problem: GET /values?readout=shrunken log2 fold change&item= `RRIRVRPPRLPRPRPRPAAVPRP`
Solution: 0.114

Problem: For the sequence shown here, `RRIRFRPPRLPRPRPRPMIQPRP` , give the reported shrunken log2 fold change.
Solution: -0.0594

Problem: // shrunken log2 fold change lookup, key: `RRIRQRPPRLPRPRPRPFSMPRP`
Solution: -0.0842

Problem: What does the record list as shrunken log2 fold change for `RRIRCRPPRLPRPRPRPWMCPRP` ?
Solution: -0.851

Problem: Requested field: shrunken log2 fold change. Item: `RRIRIRPPRLPRPRPRPCTIPRP`
Solution: -0.25

Problem: Endpoint output: shrunken log2 fold change of `RRIRNRPPRLPRPRPRPQLCPRP` . Value?
Solution: -0.00259

Problem: Which shrunken log2 fold change reading was recorded for the sequence `RRIRMRPPRLPRPRPRPTYLPRP` ?
Solution: -0.497

Problem: Tell me the measured shrunken log2 fold change of `RRIRIRPPRLPRPRPRPIIRPRP` , please.
Solution: -0.453

Problem: Quick check: shrunken log2 fold change of `RRIRNRPPRLPRPRPRPQYQPRP` ?
Solution: -0.317
